test: food/PPI effect on single-dose PK in healthy volunteers (phase 1); assay type: in vivo, human; conditions: male, human, plasma, oral, 200 mg, Fed; read-out: T1/2, Geometric Mean (Geometric CV %) (converted)
Property Label: half-life

The compound COc1cc(O[C@H]2C(C)(C)[C@H](NC(=O)c3ccc(N4CCC(CN5CCN(c6ccc(C(=O)N[C@H]7CCC(=O)NC7=O)c(F)c6)CC5)CC4)cc3)C2(C)C)ccc1C#N showed half-life equal to 58.7 h

* * *

experiment: preliminary PK in mCRPC participants (Phase 1/2); assay type: in vivo, human; conditions: human, plasma, oral, 20 mg, 20 mg QD, individual value (n = 1); read-out: Cmax Day 1
Property Label: Cmax
Please answer using the number first and the unit second.

The compound COc1cc(O[C@H]2C(C)(C)[C@H](NC(=O)c3ccc(N4CCC(CN5CCN(c6ccc(C(=O)N[C@H]7CCC(=O)NC7=O)c(F)c6)CC5)CC4)cc3)C2(C)C)ccc1C#N showed Cmax equal to 11.1 ng/mL

* * *

Assay: preliminary PK in mCRPC participants (Phase 1/2)
Format: in vivo, human
Conditions: male, human, plasma, oral, 320 mg, 320 mg QD, Mean (CV %); read-out: AUC0-24 Day 21
Protocol: A chiral bioanalytical method by LC-MS/MS has been developed to characterize the PK of Compound A. Pharmacokinetic analyses were performed using noncompartmental analysis methods. Mean steady state peak/trough ratio is less than 2, which indicates minimal fluctuation in plasma concentrations once steady state is achieved. Steady state occurs within 3 weeks into treatment. An ongoing, open-label, Phase 1/2 study in male participants with mCRPC. […]
Property Label: AUC(0-t) (ng·h/mL)
State the answer as a number, implicitly in ng·h/mL.

The compound COc1cc(O[C@H]2C(C)(C)[C@H](NC(=O)c3ccc(N4CCC(CN5CCN(c6ccc(C(=O)N[C@H]7CCC(=O)NC7=O)c(F)c6)CC5)CC4)cc3)C2(C)C)ccc1C#N [Compound A] showed AUC(0-t) equal to 23100

* * *

test: preliminary PK in mCRPC participants (Phase 1/2); type: in vivo, human; conditions: human, plasma, oral, 20 mg, 20 mg QD, individual value (n = 1); read-out: Cmax Day 21
Property Label: Cmax (ng/mL)
State the answer as a number, implicitly in ng/mL.

The compound COc1cc(O[C@H]2C(C)(C)[C@H](NC(=O)c3ccc(N4CCC(CN5CCN(c6ccc(C(=O)N[C@H]7CCC(=O)NC7=O)c(F)c6)CC5)CC4)cc3)C2(C)C)ccc1C#N [Compound A] showed Cmax equal to 44.1

* * *

experiment: food/PPI effect on single-dose PK in healthy volunteers (phase 1); format: in vivo, human; details: male, human, plasma, oral, 200 mg, Fasted; read-out: T1/2, Geometric Mean (Geometric CV %) (converted)
Property Label: half-life (h)
State the answer as a number, implicitly in h.

The compound COc1cc(O[C@H]2C(C)(C)[C@H](NC(=O)c3ccc(N4CCC(CN5CCN(c6ccc(C(=O)N[C@H]7CCC(=O)NC7=O)c(F)c6)CC5)CC4)cc3)C2(C)C)ccc1C#N [Compound A] showed half-life equal to 65.3

* * *

test: preliminary PK in mCRPC participants (Phase 1/2); format: in vivo, human; conditions: human, plasma, oral, 40 mg, 40 mg QD, individual value (n = 1); read-out: AUC0-24 Day 1
Property Label: AUC(0-t) (ng·h/mL)
State the answer as a number, implicitly in ng·h/mL.

The molecule COc1cc(O[C@H]2C(C)(C)[C@H](NC(=O)c3ccc(N4CCC(CN5CCN(c6ccc(C(=O)N[C@H]7CCC(=O)NC7=O)c(F)c6)CC5)CC4)cc3)C2(C)C)ccc1C#N [Compound A] showed AUC(0-t) equal to 314

* * *

experiment: food/PPI effect on single-dose PK in healthy volunteers (phase 1); type: in vivo, human; settings: male, human, plasma, oral, 40 mg Esomeprazole + 300 mg; read-out: T1/2, Geometric Mean (Geometric CV %) (converted)
Property Label: half-life (h)
State the answer as a number, implicitly in h.

The compound COc1cc(O[C@H]2C(C)(C)[C@H](NC(=O)c3ccc(N4CCC(CN5CCN(c6ccc(C(=O)N[C@H]7CCC(=O)NC7=O)c(F)c6)CC5)CC4)cc3)C2(C)C)ccc1C#N [Compound A] showed half-life equal to 65.5

* * *

assay: food/PPI effect on single-dose PK in healthy volunteers (phase 1); format: in vivo, human; settings: male, human, plasma, oral, 200 mg, Fasted; read-out: Tmax
Property Label: Tmax (h)
State the answer as a number, implicitly in h.

The compound COc1cc(O[C@H]2C(C)(C)[C@H](NC(=O)c3ccc(N4CCC(CN5CCN(c6ccc(C(=O)N[C@H]7CCC(=O)NC7=O)c(F)c6)CC5)CC4)cc3)C2(C)C)ccc1C#N showed Tmax equal to 7.75

* * *

test: food/PPI effect on single-dose PK in healthy volunteers (phase 1); assay type: in vivo, human; conditions: male, human, plasma, oral, 40 mg Esomeprazole + 300 mg; read-out: Tmax
Property Label: Tmax (h)
State the answer as a number, implicitly in h.

The compound COc1cc(O[C@H]2C(C)(C)[C@H](NC(=O)c3ccc(N4CCC(CN5CCN(c6ccc(C(=O)N[C@H]7CCC(=O)NC7=O)c(F)c6)CC5)CC4)cc3)C2(C)C)ccc1C#N showed Tmax equal to 10

* * *

experiment: food/PPI effect on single-dose PK in healthy volunteers (phase 1); format: in vivo, human; conditions: male, human, plasma, oral, 300 mg, 300 mg alone, fed; read-out: Cmax, Geometric LS Mean
Property Label: Cmax (ng/mL)
State the answer as a number, implicitly in ng/mL.

The molecule COc1cc(O[C@H]2C(C)(C)[C@H](NC(=O)c3ccc(N4CCC(CN5CCN(c6ccc(C(=O)N[C@H]7CCC(=O)NC7=O)c(F)c6)CC5)CC4)cc3)C2(C)C)ccc1C#N [Compound A] showed Cmax equal to 146

* * *

experiment: preliminary PK in mCRPC participants (Phase 1/2); type: in vivo, human; settings: human, plasma, oral, 40 mg, 40 mg QD, individual value (n = 1); read-out: Cmax Day 21
Property Label: Cmax (ng/mL)
State the answer as a number, implicitly in ng/mL.

The compound COc1cc(O[C@H]2C(C)(C)[C@H](NC(=O)c3ccc(N4CCC(CN5CCN(c6ccc(C(=O)N[C@H]7CCC(=O)NC7=O)c(F)c6)CC5)CC4)cc3)C2(C)C)ccc1C#N [Compound A] showed Cmax equal to 60.3

* * *

experiment: food/PPI effect on single-dose PK in healthy volunteers (phase 1); type: in vivo, human; settings: male, human, plasma, oral, 200 mg, under both fed and fasted conditions; read-out: mean T1/2
Property Label: half-life

The molecule COc1cc(O[C@H]2C(C)(C)[C@H](NC(=O)c3ccc(N4CCC(CN5CCN(c6ccc(C(=O)N[C@H]7CCC(=O)NC7=O)c(F)c6)CC5)CC4)cc3)C2(C)C)ccc1C#N showed half-life equal to 60 to 76 h

* * *

test: preliminary PK in mCRPC participants (Phase 1/2); format: in vivo, human; conditions: male, human, plasma, oral, 500 mg, 500 mg QD, Mean (CV %); read-out: Cmax Day 1
Property Label: Cmax (ng/mL)
State the answer as a number, implicitly in ng/mL.

The molecule COc1cc(O[C@H]2C(C)(C)[C@H](NC(=O)c3ccc(N4CCC(CN5CCN(c6ccc(C(=O)N[C@H]7CCC(=O)NC7=O)c(F)c6)CC5)CC4)cc3)C2(C)C)ccc1C#N showed Cmax equal to 203

* * *

assay: food/PPI effect on single-dose PK in healthy volunteers (phase 1); type: in vivo, human; settings: male, human, plasma, oral, 200 mg, Fed; read-out: Cmax, Geometric Mean (Geometric CV %)
Property Label: Cmax (ng/mL)
State the answer as a number, implicitly in ng/mL.

The compound COc1cc(O[C@H]2C(C)(C)[C@H](NC(=O)c3ccc(N4CCC(CN5CCN(c6ccc(C(=O)N[C@H]7CCC(=O)NC7=O)c(F)c6)CC5)CC4)cc3)C2(C)C)ccc1C#N showed Cmax equal to 142

* * *

experiment: preliminary PK in mCRPC participants (Phase 1/2); type: in vivo, human; details: male, human, plasma, oral, 160 mg, 160 mg QD, Mean (CV %); read-out: AUC0-24 Day 1
Property Label: AUC(0-t) (ng·h/mL)
State the answer as a number, implicitly in ng·h/mL.

The molecule COc1cc(O[C@H]2C(C)(C)[C@H](NC(=O)c3ccc(N4CCC(CN5CCN(c6ccc(C(=O)N[C@H]7CCC(=O)NC7=O)c(F)c6)CC5)CC4)cc3)C2(C)C)ccc1C#N showed AUC(0-t) equal to 2050

* * *

Experiment: food/PPI effect on single-dose PK in healthy volunteers (phase 1)
Type: in vivo, human
Details: male, human, plasma, oral, 200 mg, Fasted; read-out: CL/F_Obs, Geometric Mean (Geometric CV %) (converted)
Experimental: The primary endpoints were AUCinf and Cmax. Additional parameters measured included AUClast and Tmax. This phase 1, open-label study included a crossover, fed/fasted cohort and a fixed-sequence PPI cohort. […] The effect of food and a PPI on the PK of Compound A was evaluated in healthy participants. […]
Property Label: CL/F
Please answer using the number first and the unit second.

The molecule COc1cc(O[C@H]2C(C)(C)[C@H](NC(=O)c3ccc(N4CCC(CN5CCN(c6ccc(C(=O)N[C@H]7CCC(=O)NC7=O)c(F)c6)CC5)CC4)cc3)C2(C)C)ccc1C#N showed CL/F equal to 964 mL/min
